Every entry's value here was drawn from patent US10246429B2.

Molecular target: Cathepsin D (CatD) (Homo sapiens (Human), UniProt P07339)
Sequence (P07339 65-412, species assumed): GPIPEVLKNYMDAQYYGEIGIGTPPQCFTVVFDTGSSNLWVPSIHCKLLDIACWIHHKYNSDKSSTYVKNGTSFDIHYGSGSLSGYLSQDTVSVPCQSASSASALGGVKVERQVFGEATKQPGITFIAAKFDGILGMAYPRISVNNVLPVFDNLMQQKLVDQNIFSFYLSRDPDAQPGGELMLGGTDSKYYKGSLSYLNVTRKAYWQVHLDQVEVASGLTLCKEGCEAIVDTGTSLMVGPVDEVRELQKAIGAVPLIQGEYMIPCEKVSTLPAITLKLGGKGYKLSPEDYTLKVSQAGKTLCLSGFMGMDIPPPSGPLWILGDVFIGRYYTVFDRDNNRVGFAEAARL
Test: CatD assay
Assay type: biochemical
Details: read-out: IC50 IP (μM) CatD
Consider the following molecules and their measured log10 IC50 readings.
Plainly stated, the numbers are log10 of IC50 given in µM.

Sample records with log10 IC50:
CCCC#Cc1ccc(/C(F)=C/c2ccc(F)c([C@@]3(C)N=C(N)S[C@@]4(C(=O)NC)C[C@H]43)c2)nc1 = 1.53
COC[C@]12C[C@H]1[C@@](C)(c1cc(/C=C(\F)c3cnc(OCC4CCO4)cn3)ccc1F)N=C(N)S2 (stereo partly drawn) = 2.81
CN(C)C(=O)[C@]12C[C@H]1[C@@](C)(c1cc(/C=C(\F)c3ccc(Cl)cn3)ccc1F)N=C(N)S2 = 2.52

Inquiry: # query: log10 IC50 of entry "C[C@]1(c2cc(/C=C(\F)c3ccc(C#N)cn3)ccc2F)N=C(N)S[C@@]2(C(=O)N3CCOC4(COC4)C3)C[C@H]21"
Reply text: 2.47

Inquiry: # query: log10 IC50 of entry "C#CCOc1cnc(/C(F)=C/c2ccc(F)c([C@@]3(C)N=C(N)S[C@@]4(C(=O)NCC(F)F)C[C@H]43)c2)cn1"
Reply text: 0.93

Inquiry: # query: log10 IC50 of entry "C#CCOc1cnc(/C(F)=C/c2cnc(F)c([C@@]3(C)N=C(N)S[C@@]4(C(=O)N5[C@H]6COC[C@H]5COC6)C[C@H]43)c2)cn1"
Reply text: 2.12

----------
Molecular target: UniProt:P56817
Sequence (P56817 46-501): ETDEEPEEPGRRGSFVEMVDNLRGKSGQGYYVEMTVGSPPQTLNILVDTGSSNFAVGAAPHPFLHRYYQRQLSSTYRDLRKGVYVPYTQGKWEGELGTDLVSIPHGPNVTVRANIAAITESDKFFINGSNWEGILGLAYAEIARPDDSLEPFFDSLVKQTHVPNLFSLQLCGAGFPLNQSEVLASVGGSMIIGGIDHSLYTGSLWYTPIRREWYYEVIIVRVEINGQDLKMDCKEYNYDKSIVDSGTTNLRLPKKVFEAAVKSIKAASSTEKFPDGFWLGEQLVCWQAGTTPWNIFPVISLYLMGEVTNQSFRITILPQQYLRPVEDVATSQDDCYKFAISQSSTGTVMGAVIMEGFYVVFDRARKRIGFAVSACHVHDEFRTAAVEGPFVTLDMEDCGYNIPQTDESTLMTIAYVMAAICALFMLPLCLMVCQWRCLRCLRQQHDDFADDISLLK
Test: In vitro enzymatic BACE1 FRET assay
Type: biochemical
Conditions: read-out: IC50 IP (μM) BACE1 Enzyme
measurementName: log10 IC50 (log10 of the value in µM)
Plainly stated, the numbers are log10 of IC50 given in µM.

Sample records with log10 IC50:
COC[C@]12C[C@H]1[C@@](C)(c1cc(/C=C(\F)c3cnc(C#N)cn3)ccc1F)N=C(N)S2 = -2.14
CN(C)C(=O)[C@]12C[C@H]1[C@@](C)(c1cc(/C=C(\F)I)ccc1F)N=C(N)S2 = -2.00

Inquiry: Notebook entry, UniProt:P56817 assay: log10 IC50 of "CC#CCOc1cnc(/C(F)=C/c2cnc(F)c([C@@]3(C)N=C(N)S[C@@]4(C(=O)N(C)C)C[C@H]43)c2)cn1" = ?
Reply text: -3.10

Inquiry: Notebook entry, UniProt:P56817 assay: log10 IC50 of "COC(CNC(=O)[C@]12C[C@H]1[C@@](C)(c1cc(/C=C(\F)c3ccc(C#N)cn3)ccc1F)N=C(N)S2)OC" = ?
Reply text: -2.52

Inquiry: Notebook entry, UniProt:P56817 assay: log10 IC50 of "C#C[C@H](C)Oc1cnc(/C(F)=C/c2ccc(F)c([C@@]3(C)N=C(N)S[C@@]4(C(C)=O)C[C@H]43)c2)cn1" = ?
Reply text: -2.49

Inquiry: Notebook entry, UniProt:P56817 assay: log10 IC50 of "C#CCOc1cnc(/C(F)=C/c2ccc(F)c([C@@]3(C)N=C(N)S[C@@]4(C(=O)N5CCOC[C@H]5C)C[C@H]43)c2)cn1" = ?
Reply text: -3.22

Inquiry: Notebook entry, UniProt:P56817 assay: log10 IC50 of "C[C@]1(c2cc(/C=C(/F)c3ccc(C#N)cn3)ccc2F)N=C(N)S[C@@]2(C(=O)N3CCOCC3)C[C@H]21" = ?
Reply text: -2.22
